- measurement-description: MTT assay for cytotoxicity
- Assay type: cell-based, Human
- cond: human, HepG2.2.15 cells, half (50%) lethal concentration
Overview of recorded CC50 at 8 days for various compounds

The following compounds have reported results that may help.
N#Cc1ccc(Cn2nc(-c3ccc(NCCO)nc3F)c3ccccc3c2=O)cc1 ... > 100 µM
CCOC(=O)CCCNc1nc(F)c(-c2nn(Cc3ccc(C#N)cc3)c(=O)c3ccccc23)cc1Cl ... > 100 µM
COCCNc1nc(F)c(-c2nn(Cc3ccc(C#N)cc3)c(=O)c3ccccc23)cc1Cl ... > 100 µM
COc1cc2c(-c3ccc(C)nc3F)nn(Cc3ccc(C#N)cc3)c(=O)c2cc1OC ... > 100 µM
N#Cc1ccc(Cn2nc(-c3ccc(NCC4CCOCC4)nc3F)c3ccccc3c2=O)cc1 ... 54.1 µM

# CC50 at 8 days (compound: `CCOC(=O)CCCNc1ccc(-c2nn(Cc3ccc(C#N)cc3)c(=O)c3ccccc23)c(F)n1` ) is > 100 µM

# CC50 at 8 days (compound: `O=c1c2ccccc2c(-c2ccc(N3CCC3)nc2F)nn1Cc1ccc(Cl)cc1` ) is 42.9 µM

# CC50 at 8 days (compound: `N#Cc1ccc(Cn2nc(-c3ccc(F)nc3F)c3ccccc3c2=O)cc1` ) is > 100 µM
